- target_entity: UniProt:P49841
- Sequence (P49841 whole entry): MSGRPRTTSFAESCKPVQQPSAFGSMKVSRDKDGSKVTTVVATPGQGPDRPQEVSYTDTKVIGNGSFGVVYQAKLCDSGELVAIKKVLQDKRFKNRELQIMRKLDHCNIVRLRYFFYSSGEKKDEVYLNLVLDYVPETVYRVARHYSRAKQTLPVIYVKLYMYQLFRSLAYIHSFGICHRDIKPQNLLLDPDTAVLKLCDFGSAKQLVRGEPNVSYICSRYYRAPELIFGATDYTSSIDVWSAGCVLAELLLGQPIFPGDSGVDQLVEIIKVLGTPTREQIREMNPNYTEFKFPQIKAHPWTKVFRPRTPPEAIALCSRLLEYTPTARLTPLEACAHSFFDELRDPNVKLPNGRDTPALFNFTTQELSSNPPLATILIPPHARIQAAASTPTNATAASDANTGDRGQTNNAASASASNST
- experimental_details: GSK3b TR-FRET kinase assay
- Type: biochemical
- test_parameters: 1 nM GSK3b, 2 μM ATP, 30 minute preincubation; geometric mean; read-out: GSK3-B TR-FRET BIOCHEMICAL (TR-FRET); GMean; IC50
pIC50: −log10 of the molar value.
readout_label: pIC50

>  <molecule>
CCc1cc(-c2cccc([C@]3(CC)C4=C(CC(C)(C)NC4=O)Nc4n[nH]cc43)c2)ccn1

>  <pIC50>
< 5.30

$$$$

Could you now look at the following molecule, please?
Q) Any idea what pIC50 was measured for CCC1(c2cccc(-c3ccnc4c3CCC4)c2)C2=C(CC(C)(C)NC2=O)Nc2n[nH]c(C)c21 (stereo not drawn) ?
A) 6.00 to 7.00
